Assay: Mouse blood levels after single intramuscular injection
Assay type: in vivo, mice
Details: in vivo, im, 20 mg/kg
Binning scheme for concentration at 1 h: c1 (below 3000 ng/mL), c2 (3000 ng/mL to below 6000 ng/mL), c3 (6000 ng/mL or more)

>>> df
                                   molecule  class_label
0  CO/N=C(\C(=O)NC1C(=O)N2C(C(=O)[O-])=C(C[n+]3ccc4sc(C(N)=O)nc4c3)CS[C@H]12)c1csc(N)n1 (stereo partly drawn) [Ix]           c3
1  CO/N=C(\C(=O)NC1C(=O)N2C(C(=O)[O-])=C(C[n+]3ccc4sc(NC(C)=O)nc4c3)CS[C@H]12)c1csc(N)n1 (stereo partly drawn) [Ip]           c2
2  CO/N=C(\C(=O)NC1C(=O)N2C(C(=O)[O-])=C(C[n+]3ccc4sc(N)nc4c3)CSC12)c1csc(N)n1 (stereo not drawn) [In]           c2
3  Nc1nc(/C(=N/OCC(=O)O)C(=O)NC2C(=O)N3C(C(=O)[O-])=C(C[n+]4ccc5sc(N)nc5c4)CS[C@H]23)cs1 (stereo partly drawn) [Ig]           c3
4  Cc1nc2c[n+](CC3=C(C(=O)[O-])N4C(=O)C(NC(=O)/C(=N\OC5(C(=O)O)CCC5)c5csc(N)n5)[C@H]4SC3)ccc2s1 (stereo partly drawn) [Im]           c1
5  CO/N=C(\C(=O)NC1C(=O)N2C(C(=O)[O-])=C(C[n+]3ccc4sc(SC)nc4c3)CSC12)c1csc(N)n1 (stereo not drawn) [Ii]           c1
6  CO/N=C(\C(=O)NC1C(=O)N2C(C(=O)[O-])=C(C[n+]3ccc4scnc4c3)CS[C@H]12)c1csc(N)n1 (stereo partly drawn) [Ia]           c3
7  CO/N=C(\C(=O)NC1C(=O)N2C(C(=O)[O-])=C(C[n+]3ccc4sc(NC(=O)N5CCCC5)nc4c3)CS[C@H]12)c1csc(N)n1 (stereo partly drawn) [It]           c2

###

Experiment: Mouse blood levels after single intramuscular injection
Type: in vivo, mice
Details: in vivo, im, 20 mg/kg
// reported concentration at 1 h per item
MEASURED PROPERTY: concentration at 1 h (ng/mL)

                                   molecule     measured_property  recorded_measurement
0  Nc1nc(/C(=N/OC2(C(=O)O)CCC2)C(=O)NC2C(=O)N3C(C(=O)[O-])=C(C[n+]4ccc5scnc5c4)CS[C@H]23)cs1 (stereo partly shown)  concentration at 1 h                  2600
1  CO/N=C(\C(=O)NC1C(=O)N2C(C(=O)[O-])=C(C[n+]3ccc4sc(N(C)C)nc4c3)CS[C@H]12)c1csc(N)n1 (stereo partly shown)  concentration at 1 h                  2600
2  C#CCO/N=C(\C(=O)NC1C(=O)N2C(C(=O)[O-])=C(C[n+]3ccc4sc(N)nc4c3)CS[C@H]12)c1csc(N)n1 (stereo partly shown)  concentration at 1 h                  3300
3  CC(C)(O/N=C(\C(=O)NC1C(=O)N2C(C(=O)[O-])=C(C[n+]3ccc4scnc4c3)CS[C@H]12)c1csc(N)n1)C(=O)O (stereo partly shown)  concentration at 1 h                  2500

###

// reported MIC per item
Tested on: Ps. aeruginosa (6 strains)
Assay: MIC, two-fold serial agar dilution, group (G-)-III
Assay type: cell-based
Details: Pseudomonas aeruginosa; (G-)-III, 6 strains, Mueller-Hinton agar; read-out: Geometric Mean of MIC
MEASURED PROPERTY: MIC (µg/mL)

>>> df
                                    compound  recorded_measurement
 0  CC(C)(O/N=C(\C(=O)NC1C(=O)N2C(C(=O)[O-])=C(C[n+]3ccc4scnc4c3)CS[C@H]12)c1csc(N)n1)C(=O)O (some centres unmarked)                   1.4
 1  CC(C)(O/N=C(\C(=O)NC1C(=O)N2C(C(=O)[O-])=C(C[n+]3ccc4sc(N)nc4c3)CSC12)c1csc(N)n1)C(=O)O (centres unmarked)                   1.5
 2  CO/N=C(\C(=O)NC1C(=O)N2C(C(=O)[O-])=C(C[n+]3ccc4sc(NC(C)=O)nc4c3)CS[C@H]12)c1csc(N)n1 (some centres unmarked)                    11
 3  CO/N=C(\C(=O)NC1C(=O)N2C(C(=O)[O-])=C(C[n+]3ccc4sc(NC(=O)OC)nc4c3)CS[C@H]12)c1csc(N)n1 (some centres unmarked)                    14
 4  CNC(=O)Nc1nc2c[n+](CC3=C(C(=O)[O-])N4C(=O)C(NC(=O)/C(=N\OC)c5csc(N)n5)[C@H]4SC3)ccc2s1 (some centres unmarked)                   5.2
 5  C=CCO/N=C(\C(=O)NC1C(=O)N2C(C(=O)[O-])=C(C[n+]3ccc4scnc4c3)CSC12)c1csc(N)n1 (centres unmarked)                   3.9
 6  C#CCO/N=C(\C(=O)NC1C(=O)N2C(C(=O)[O-])=C(C[n+]3ccc4sc(N)nc4c3)CS[C@H]12)c1csc(N)n1 (some centres unmarked)                   2.1
 7  Nc1nc(/C(=N/OC2(C(=O)O)CCC2)C(=O)NC2C(=O)N3C(C(=O)[O-])=C(C[n+]4ccc5sc(N)nc5c4)CS[C@H]23)cs1 (some centres unmarked)                   1.4
 8  CO/N=C(\C(=O)NC1C(=O)N2C(C(=O)[O-])=C(C[n+]3ccc4sc(N)nc4c3)CSC12)c1csc(N)n1 (centres unmarked)                   1.9
 9  CCO/N=C(\C(=O)NC1C(=O)N2C(C(=O)[O-])=C(C[n+]3ccc4sc(N)nc4c3)CSC12)c1csc(N)n1 (centres unmarked)                     3
10  CO/N=C(\C(=O)NC1C(=O)N2C(C(=O)[O-])=C(C[n+]3ccc4sc(C=O)nc4c3)CSC12)c1csc(N)n1 (centres unmarked)                   1.7
11  CO/N=C(\C(=O)NC1C(=O)N2C(C(=O)[O-])=C(C[n+]3ccc4sc(N(C)C)nc4c3)CS[C@H]12)c1csc(N)n1 (some centres unmarked)                   6.3
12  CCO/N=C(\C(=O)NC1C(=O)N2C(C(=O)[O-])=C(C[n+]3ccc4scnc4c3)CSC12)c1csc(N)n1 (centres unmarked)                   2.6
13  CO/N=C(\C(=O)NC1C(=O)N2C(C(=O)[O-])=C(C[n+]3ccc4scnc4c3)CS[C@H]12)c1csc(N)n1 (some centres unmarked)                   2.6

###

Test: Mouse blood levels after single intramuscular injection
Assay type: in vivo, mice
Settings: in vivo, im, 20 mg/kg
// reported concentration at 1.5 h per item
MEASURED PROPERTY: concentration at 1.5 h (µg/mL)

                                    compound  unit_of_measure  recorded_measurement
 0  Cc1nc2c[n+](CC3=C(C(=O)[O-])N4C(=O)C(NC(=O)/C(=N\OC5(C(=O)O)CCC5)c5csc(N)n5)[C@H]4SC3)ccc2s1 (stereo partly shown) [Im]            µg/mL                  0.48
 1  Nc1nc(/C(=N/OC2(C(=O)O)CCC2)C(=O)NC2C(=O)N3C(C(=O)[O-])=C(C[n+]4ccc5scnc5c4)CS[C@H]23)cs1 (stereo partly shown) [Ie]            µg/mL                  0.51
 2  Nc1nc(/C(=N/OCC(=O)O)C(=O)NC2C(=O)N3C(C(=O)[O-])=C(C[n+]4ccc5sc(N)nc5c4)CS[C@H]23)cs1 (stereo partly shown) [Ig]            µg/mL                   1.9
 3  Nc1nc(/C(=N/OC2(C(=O)O)CCC2)C(=O)NC2C(=O)N3C(C(=O)[O-])=C(C[n+]4ccc5sc(N)nc5c4)CS[C@H]23)cs1 (stereo partly shown) [Ik]            µg/mL                   1.8
 4  CO/N=C(\C(=O)NC1C(=O)N2C(C(=O)[O-])=C(C[n+]3ccc4sc(NC(=O)N5CCCC5)nc4c3)CS[C@H]12)c1csc(N)n1 (stereo partly shown) [It]            µg/mL                   2.1
 5  CO/N=C(\C(=O)NC1C(=O)N2C(C(=O)[O-])=C(C[n+]3ccc4sc(C)nc4c3)CSC12)c1csc(N)n1 (stereo not shown) [Ih]            µg/mL                  0.79
 6  CO/N=C(\C(=O)NC1C(=O)N2C(C(=O)[O-])=C(C[n+]3ccc4sc(C(=O)O)nc4c3)CS[C@H]12)c1csc(N)n1 (stereo partly shown) [Iv]            µg/mL                   1.2
 7  CO/N=C(\C(=O)NC1C(=O)N2C(C(=O)[O-])=C(C[n+]3ccc4sc(N)nc4c3)CSC12)c1csc(N)n1 (stereo not shown) [In]            µg/mL                   2.9
 8  CO/N=C(\C(=O)NC1C(=O)N2C(C(=O)[O-])=C(C[n+]3ccc4sc(SC)nc4c3)CSC12)c1csc(N)n1 (stereo not shown) [Ii]            µg/mL                  0.25
 9  CO/N=C(\C(=O)NC1C(=O)N2C(C(=O)[O-])=C(C[n+]3ccc4sc(NC(=O)OC)nc4c3)CS[C@H]12)c1csc(N)n1 (stereo partly shown) [Is]            µg/mL                   2.2
10  CO/N=C(\C(=O)NC1C(=O)N2C(C(=O)[O-])=C(C[n+]3ccc4sc(C=O)nc4c3)CSC12)c1csc(N)n1 (stereo not shown) [Iw]            µg/mL                     1
11  C#CCO/N=C(\C(=O)NC1C(=O)N2C(C(=O)[O-])=C(C[n+]3ccc4sc(N)nc4c3)CS[C@H]12)c1csc(N)n1 (stereo partly shown) [If]            µg/mL                     2
12  CO/N=C(\C(=O)NC1C(=O)N2C(C(=O)[O-])=C(C[n+]3ccc4sc(C(N)=O)nc4c3)CS[C@H]12)c1csc(N)n1 (stereo partly shown) [Ix]            µg/mL                   4.2
